Overview of reported phosphorylation enrichment across a group of sequences:
Biological target: Jak2 (UniProt O60674)
Sequence (O60674 whole entry, looked up): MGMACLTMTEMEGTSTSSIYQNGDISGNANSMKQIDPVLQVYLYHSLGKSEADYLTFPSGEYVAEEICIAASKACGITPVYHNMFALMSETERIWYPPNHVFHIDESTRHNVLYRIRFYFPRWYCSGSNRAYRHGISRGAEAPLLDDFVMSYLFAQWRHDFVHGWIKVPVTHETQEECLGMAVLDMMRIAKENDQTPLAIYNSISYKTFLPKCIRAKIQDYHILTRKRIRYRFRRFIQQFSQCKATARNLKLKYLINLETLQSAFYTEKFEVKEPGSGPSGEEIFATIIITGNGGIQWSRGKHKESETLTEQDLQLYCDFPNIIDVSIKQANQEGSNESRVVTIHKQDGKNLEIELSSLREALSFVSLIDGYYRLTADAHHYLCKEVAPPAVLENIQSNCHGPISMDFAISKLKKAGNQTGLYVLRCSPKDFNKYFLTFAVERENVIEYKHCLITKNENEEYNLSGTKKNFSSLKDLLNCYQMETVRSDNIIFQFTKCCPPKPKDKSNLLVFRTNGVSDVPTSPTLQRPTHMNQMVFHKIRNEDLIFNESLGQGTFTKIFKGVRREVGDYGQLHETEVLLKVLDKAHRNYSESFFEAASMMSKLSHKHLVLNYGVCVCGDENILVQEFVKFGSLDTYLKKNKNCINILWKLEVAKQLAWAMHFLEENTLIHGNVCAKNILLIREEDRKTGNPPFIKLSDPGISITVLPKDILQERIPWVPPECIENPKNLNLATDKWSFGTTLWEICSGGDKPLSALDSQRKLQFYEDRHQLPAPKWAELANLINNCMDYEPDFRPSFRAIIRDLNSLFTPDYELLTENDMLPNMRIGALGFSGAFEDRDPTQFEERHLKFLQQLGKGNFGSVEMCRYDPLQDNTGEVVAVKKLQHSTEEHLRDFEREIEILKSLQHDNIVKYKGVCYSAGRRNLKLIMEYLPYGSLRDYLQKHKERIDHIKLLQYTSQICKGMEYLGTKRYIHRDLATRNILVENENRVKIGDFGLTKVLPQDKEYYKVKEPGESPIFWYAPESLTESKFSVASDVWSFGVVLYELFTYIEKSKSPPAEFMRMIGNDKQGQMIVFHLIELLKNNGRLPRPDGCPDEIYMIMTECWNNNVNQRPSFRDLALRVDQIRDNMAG
Experiment: phosphorylation enrichment, bacterial display (enrichment ratio); higher = better substrate or ligand; peptides without Tyr show the background
QUANTITY KIND: phosphorylation enrichment

> print(dat)
                       residue.codes  observed
 1         SSAAGYACLAF [MVD_Y131_YF]     0.919
 2         VVGMLYVGGLP [LAMA2_Y2886]      1.08
 3   PVGVLYEVKVF [PTS_Y128_K129E_YF]      2.08
 4        RGDTVYTVNRM [KBTBD13_Y404]     0.834
 5     MSRNLYSGDCY [DDR2_Y736_Y740C]      0.69
 6     EIASHYRHLLR [ZBTB46_Y14_T11A]     0.703
 7  FTAVGYHKHFT [NOMO1_Y1137_I1141F]     0.782
 8           SARHHYESLQT [BIN1_Y157]     0.479
 9           NLTVNYKKNLI [SQOR_Y259]     0.619
10    RKRQFYLYKGK [RSPO4_Y112_C107R]     0.228
11           RWHEGYRQTPK [CD44_Y412]     0.607
12         FLEKFYKFGSR [NNMT_Y25_YF]     0.679
13   LTSKPYAFTAW [NDUFS1_Y236_R241W]     0.682
14           RDHYGYRQSVT [CD55_Y245]     0.455

====

Target: Grb2 SH2 (UniProt P62993)
Sequence (P62993 whole entry, looked up): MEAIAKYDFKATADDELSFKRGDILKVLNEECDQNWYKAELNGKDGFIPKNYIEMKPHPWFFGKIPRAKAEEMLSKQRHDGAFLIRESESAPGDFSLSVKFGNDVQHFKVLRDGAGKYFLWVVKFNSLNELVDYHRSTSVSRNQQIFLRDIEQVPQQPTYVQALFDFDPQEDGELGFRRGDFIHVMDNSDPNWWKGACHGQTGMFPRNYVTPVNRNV
Experiment: SH2 binding enrichment of the phosphorylated peptide, bacterial display (enrichment ratio); higher = better substrate or ligand; peptides without Tyr show the background
Quick rule: SH2 binding enrichment of at least 0.9 means fulfilled, below that means not fulfilled.

> print(dat)
                        residue.codes               study.target    label.class
 1    ALTRSYVREKV [CYP2C8_Y243_I244V]  Grb2 SH2 (UniProt P62993)  not fulfilled
 2           GLDGSYLLRDS [SH2D1A_Y29]  Grb2 SH2 (UniProt P62993)  not fulfilled
 3          RHTRSYDFMEG [FGF7_Y56_YF]  Grb2 SH2 (UniProt P62993)      fulfilled
 4         KNKKDYYDMYE [SLC26A3_Y526]  Grb2 SH2 (UniProt P62993)      fulfilled
 5        ASQEEYSAMRD [KRAS_Y64_G60S]  Grb2 SH2 (UniProt P62993)  not fulfilled
 6             RKNAKYLLKGE [CDH5_Y82]  Grb2 SH2 (UniProt P62993)      fulfilled
 7       LKKLEYLNLPL [LRRC6_Y70_A74P]  Grb2 SH2 (UniProt P62993)      fulfilled
 8        DAICFYRMENA [NPHS2_Y195_YF]  Grb2 SH2 (UniProt P62993)  not fulfilled
 9     VASMFYTLVIP [OR8K3_Y277_I275M]  Grb2 SH2 (UniProt P62993)      fulfilled
10            REVPVYIGEDS [SYNM_Y460]  Grb2 SH2 (UniProt P62993)  not fulfilled
11   VFGVSYDEFRF [CFTR_Y512_I507V_YF]  Grb2 SH2 (UniProt P62993)      fulfilled
12  ATQDNYVLEVR [PTPRZ1_Y2179_D2178N]  Grb2 SH2 (UniProt P62993)  not fulfilled
13         ARTNEYKIIRS [INA_Y87_T92S]  Grb2 SH2 (UniProt P62993)      fulfilled
